System under test: human vasopressin V1a receptor subtype (Homo sapiens, UniProt P37288)
Construct: host or cells: CHO cells, stably transfected (pZeoSV vector for the Thibonnier line)
Sequence (P37288 whole entry): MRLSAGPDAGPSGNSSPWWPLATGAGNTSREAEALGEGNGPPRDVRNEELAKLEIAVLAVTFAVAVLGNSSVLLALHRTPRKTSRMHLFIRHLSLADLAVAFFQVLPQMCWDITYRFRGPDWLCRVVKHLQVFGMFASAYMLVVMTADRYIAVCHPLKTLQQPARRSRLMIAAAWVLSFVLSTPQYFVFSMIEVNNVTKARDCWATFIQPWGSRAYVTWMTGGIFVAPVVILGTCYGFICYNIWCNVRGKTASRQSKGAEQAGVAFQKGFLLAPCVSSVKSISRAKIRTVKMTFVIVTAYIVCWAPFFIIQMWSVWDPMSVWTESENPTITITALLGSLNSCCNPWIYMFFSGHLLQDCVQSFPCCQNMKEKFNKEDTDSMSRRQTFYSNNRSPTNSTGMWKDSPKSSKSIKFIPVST
Assay procedure: Vasopressin binding in CHO cell membranes expressing human vasopressin V1a subtype receptors ([3H]Manning ligand radioligand binding)
Test settings: 100 nM
Assay readout: inhibition at 0.1 µM (%)

Worked examples follow.
* COc1cccc(-c2ccc(C(=O)N3Cc4ccc(C(=O)N(C)CCc5ccncc5)n4Cc4ccccc43)cc2C)c1 | 31
* COc1cccc(-c2cc(OC)c(C(=O)N3Cc4ccc(C(=O)NCc5ccncc5)n4Cc4ccccc43)cc2Cl)c1 | 1
* Cc1ccccc1-c1ccc(C(=O)N2Cc3ccc(C(=O)N4CCN(c5ccncc5)CC4)n3Cc3ccccc32)cc1 | 1

[a] Cc1ccccc1-c1ccc(C(=O)N2Cc3ccc(C(=O)NCc4cccnc4)n3Cc3ccccc32)cc1C
[b] COc1ccccc1-c1ccc(C(=O)N2Cc3ccc(C(=O)NCc4ccncc4)n3Cc3ccccc32)cc1OC
(Q) For the two items a and b , which reports the higher inhibition at 0.1 µM value? Give the label under which the chosen entry appears.
(A) a
(a: 12%, b: 4%)

Ref: patent US7064120B2
